Reference source for all entries: PubChem BioAssay (NCI)

Test system: SF-268 CNS
procedureSummary: NCI tumour cell line growth inhibition, 48 h
quantityName: TGI (µM)
Respond numerically; units are µM and should not be typed.

// worked examples, TGI included
1. COc1ccc2c(c1)[C@@]13CCCC[C@H]1[C@@H](C2)N(C)CC3=O    35.8
2. NP(=O)(OCC1=CC(=O)c2ccccc2C1=O)N(CCBr)CCBr (stereo unspecified)    26.7

TGI reading for "CC(C)S(=O)(=O)c1ccccc1Nc1nc(Nc2cccc(NC(=O)CN)c2)ncc1Cl" : 1.3

----------
Tested on: HL-60(TB) leukemia
procedureSummary: NCI tumour cell line growth inhibition, 48 h
Here the recorded TGI is given for each entry.
Give the value in µM but do not write µM after it.

1) Nc1nc(CCl)nc(Nc2ccccc2)n1    11.2

For record "COC(=O)/C(C)=C/[N+](=O)[O-]" the listed TGI is 40.1

Input "CC(C)C(=O)/C=C/c1ccc(Br)cc1" . Output TGI: 41.2

Given item "Cc1cc[c-]cc1.Fc1c[c-]c(-c2ccccn2)c(F)c1.[Pt+2].c1ccc(P(C[PH+](c2ccccc2)c2ccccc2)c2ccccc2)cc1" , the value recorded as its TGI is 6.88

Item: "CC(C)N=c1cc2n(-c3ccc(Cl)cc3)c3ccccc3nc-2cc1Nc1ccc(Cl)cc1" | TGI: 2.46

Measured TGI, "O=C(CSC(c1ccccc1)c1ccccc1)N/N=C/c1ccc(Cl)cc1Cl" : 55.1

----------
In this section we review reported TGI values for a set of compounds.
Test system: IGROV1 ovarian
procedureSummary: NCI tumour cell line growth inhibition, 48 h

Take a look at these entries with their results.
1) COc1ccc2c(c1)[C@@]13CCCC[C@H]1[C@@H](C2)N(C)CC3=O    32.8 µM
2) CC(=O)Nc1cc2c(s1)CCC1CC(=O)NN=C21 (stereo unspecified)    > 100 µM
3) CCCC(C)NC1=C(NC(C)=O)C(=O)c2ccccc2C1=O (stereo unspecified)    > 100 µM

# compound "COc1ccc(-c2ccc(/C=N/n3c(C)n[nH]c3=S)o2)c([N+](=O)[O-])c1" ; its TGI = > 100 µM

// recorded TGI for "O=c1nc2c(c(-c3ccccc3Cl)[nH]1)COC/C2=C\c1ccccc1Cl" : > 100 µM

Lab note: measured TGI of "Cc1ccc2c(=O)cc(-c3cccs3)[nH]c2n1" was > 100 µM

----------
# reported TGI; entries follow
System: XF 498 CNS
procedureSummary: NCI tumour cell line growth inhibition, 48 h

// solved cases for TGI follow
1. CCCC(C)NC1=C(NC(C)=O)C(=O)c2ccccc2C1=O (stereo not drawn)    > 100 µM
2. COc1cc(C)c2c(c1C)OC(=O)c1c(C)c(Cl)c(O)c(C=O)c1O2    49.5 µM
3. CC12CCCCC1(C)C2Sc1ccccc1 (stereo not drawn)    66.3 µM
4. O=C1CC2C(=O)N(Cc3ccccc3)C1C=C2S(=O)(=O)c1ccccc1 (stereo not drawn)    > 100 µM
5. COc1ccc(O)cc1    > 100 µM

The molecule listed as "CC(=O)c1sc(-c2nc(C)c(C(=O)/C=C\c3ccc(/C=C\C(=O)c4sc(-c5nc(C)c(C(C)=O)s5)nc4C)cc3)s2)nc1C" shows TGI equal to > 100 µM

Just so you know, measured TGI for "[Au+].[Au+].[Au+].[c-]1nccn1Cc1ccccc1.[c-]1nccn1Cc1ccccc1.[c-]1nccn1Cc1ccccc1" came out at 3.13 µM

Sample C=C1C[C@]23CCC4C(C)(C)C(=O)CC[C@]4(C)C2C[C@H]1C(O)C3=O (stereo partly drawn) ; TGI observed: > 75 µM

----------
Tested on: A549 NSCLC
procedureSummary: NCI tumour cell line growth inhibition, 48 h; in the data active = GI50 below about 0.43 µM; inactive = the rest
Please answer using one outcome listed in active, inactive

Some solved cases for reference:
1. COc1cc2c3c(n(CCCN(C)C)c(=O)c2cc1OC)-c1ccccc1C3=O    inactive
2. C[C@]12CC[C@@H]3c4ccc(O)cc4CC[C@H]3[C@@H]1CC[C@@H]2NS(=O)(=O)c1cccc(F)c1    inactive
3. O=C(COc1ccc(/C=C2\CSc3ccccc3C2=O)cc1)Nc1nccs1    inactive
4. CC(=O)O[C@H](C[C@H](C(C)C)N(C)C(=O)[C@@H](NC(=O)[C@H]1CCCCN1C)C(C)C)c1nc(C(=O)N[C@@H](Cc2ccccc2)C[C@H](C)C(=O)O)c(CCOCc2ccccc2)s1    active
5. O=C(Nc1ccc(CO)cc1)c1coc2ccccc2c1=O    inactive
6. C=C1C(=O)O[C@H]2[C@H]1CC/C(COC(=O)c1ccc(Cl)nc1)=C\CC[C@@]1(C)O[C@@H]21    inactive
7. COc1cccc(/C(COc2ccc3c(c2)oc(=O)c2cc(OC)ccc23)=N/O)c1    inactive
8. Cc1cc(I)cc(CN(C)CCCN2CCOCC2)c1O    inactive
9. Oc1cn(-c2ccc(Cl)cc2)nc1-c1n[nH]c(=S)n1C1CCCCC1    inactive
10. N.N.N.N.[Cl-].[Co+3].[N-]=[N+]=[N-].[N-]=[N+]=[N-]    inactive

What was the test verdict on "CN(CCCNC(=O)Cc1ccc2ccc3cccc4ccc1c2c34)CCCNc1cc(-c2ccc3ccccc3c2)nc2ccccc12" ?
inactive

State the result this test recorded for "O=C(Nc1ccc(Br)cc1)c1ccc(Cl)c(Cl)c1" .
inactive

----------
Tested on: SN12C renal
procedureSummary: NCI tumour cell line growth inhibition, 48 h
GI50 by entry:

Example entries and their recorded answers appear below.
1. N.N.N.N.[Cl-].[Co+3].[N-]=[N+]=[N-].[N-]=[N+]=[N-]    > 100 µM
2. Cc1cc(S(=O)(=O)N/N=C(\Sc2cc(Cl)c(C)cc2S(N)(=O)=O)c2ccc(Cl)cc2)c(Cl)cc1Cl    97.2 µM
3. Cc1cc[c-]cc1.Fc1c[c-]c(-c2ccccn2)c(F)c1.[Pt+2].c1ccc(P(C[PH+](c2ccccc2)c2ccccc2)c2ccccc2)cc1    2.4 µM
4. COc1cc(C2=C(c3cn(C)c4ccccc34)COC2=O)cc(OC)c1OC    0.593 µM

Next compound, please.
The reported GI50 of the compound "COc1ccc2ncn(-c3cc(O[C@H](C)c4ccccc4Cl)c(C(N)=O)s3)c2c1" was 0.954 µM

----------
Recorded TGI values for a group of molecules are listed next.
System: 786-0 renal
procedureSummary: NCI tumour cell line growth inhibition, 48 h

1. CC(=O)O[C@H](C[C@H](C(C)C)N(C)C(=O)[C@@H](NC(=O)[C@H]1CCCCN1C)C(C)C)c1nc(C(=O)N[C@@H](Cc2ccccc2)C[C@H](C)C(=O)O)c(CCOCc2ccccc2)s1    > 10 µM
2. NP(=O)(OCC1=CC(=O)c2ccccc2C1=O)N(CCBr)CCBr (centres undefined)    28.6 µM
3. COc1cc2c(cc1O)C1Cc3ccc(OC)c(O)c3C(C2)N1C (centres undefined)    > 100 µM

Short answer for CC(=O)N1N=C(c2ccc3ccccc3c2O)CC1C(=O)c1ccco1 (centres undefined) : TGI was > 100 µM

----------
Tested on: IGROV1 ovarian
procedureSummary: NCI tumour cell line growth inhibition, 48 h
Recorded TGI values for a group of molecules are listed next.

Some entries whose results are on file:
1. Cc1ccn2c(=O)cc(-c3ccccc3)nc2c1    > 100 µM
2. N#Cc1c(-c2ccccc2)nc(-c2ccccc2)sc1=S    > 100 µM
3. O=C1[C@H]2ON(c3ccccc3)C(c3ccc(Cl)cc3)[C@H]2C(=O)N1c1ccc(Cc2ccc(N3C(=O)[C@@H]4ON(c5ccccc5)C(c5ccc(Cl)cc5)[C@@H]4C3=O)cc2)cc1 (some centres undefined)    > 100 µM

Now let's try a different one.
For this molecule ( "C[C@]12CC[C@@H]3c4ccc(O)cc4CC[C@H]3[C@@H]1CC[C@@H]2NS(=O)(=O)c1cccc(F)c1" ), measured TGI is 21.8 µM

----------
System: SK-MEL-2 melanoma
procedureSummary: NCI tumour cell line growth inhibition, 48 h; in the data active = GI50 below about 0.43 µM; inactive = the rest
Assign a class; possible classes are active, inactive

Below are worked cases with known answers.
1) Nc1nc(SN=Nc2ccc(S(N)(=O)=O)cc2)c2[nH]cnc2n1    inactive
2) N#C/C(=C/N1CCN(C(=O)c2ccco2)C1=S)C(=O)c1ccccc1    inactive

Look up the recorded call for "O=C(/C=C/c1cc(CN2CCOCC2)c(O)c2ncccc12)c1cc(CN2CCOCC2)c(O)c2ncccc12" in this test.
active

Answer briefly: the call reported for "Cc1cc[c-]cc1.Fc1c[c-]c(-c2ccccn2)c(F)c1.[Pt+2].c1ccc(P(C[PH+](c2ccccc2)c2ccccc2)c2ccccc2)cc1" in this assay.
inactive

----------
Below: a set of entries, each annotated with reported TGI.
Test system: 786-0 renal
procedureSummary: NCI tumour cell line growth inhibition, 48 h

The value of TGI measured for the molecule "Cc1cc(C)[n+](CCOc2ccc(/C(=C(/Cl)c3ccccc3)c3ccccc3)cc2)c(C)c1" turned out to be 8.35 µM

Looking up "O=c1[nH]/c(=C/c2ccc(OCc3ccccc3)cn2)c(=O)[nH]/c1=C/c1ccc(O)cc1" , I see its TGI listed as 1.45 µM
